Cited source for all entries: patent US20190322750A1

assay target: PD-L1 on CHO cell line highly expressing PD-L1 (PD-1/PD-L1 blockade bioassay kit, promega J1250) (UniProt Q9NZQ7 19-290, limits assumed)
Sequence (Q9NZQ7 19-290 limits assumed): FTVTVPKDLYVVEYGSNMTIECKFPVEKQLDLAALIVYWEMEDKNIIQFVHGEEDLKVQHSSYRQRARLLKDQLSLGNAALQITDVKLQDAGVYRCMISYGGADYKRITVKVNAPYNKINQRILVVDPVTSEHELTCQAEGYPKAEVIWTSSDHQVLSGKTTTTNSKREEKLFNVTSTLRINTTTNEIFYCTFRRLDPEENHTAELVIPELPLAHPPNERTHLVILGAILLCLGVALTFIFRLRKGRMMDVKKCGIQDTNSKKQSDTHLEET
procedure text: cell-based or functional assay
endpoint name: Average *EC50 [nM], PD-1/PD-L1 blockade bioassay (nM)
# number only, unit nM dropped from output

// solved cases for Average *EC50 [nM], PD-1/PD-L1 blockade bioassay follow
PDL1-16E12 (LS/4H11) (antibody, V domains shown) VH: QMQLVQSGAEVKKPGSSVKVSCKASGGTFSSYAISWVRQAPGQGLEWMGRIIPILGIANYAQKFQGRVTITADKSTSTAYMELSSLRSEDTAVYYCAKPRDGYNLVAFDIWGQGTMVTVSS VL: QLVLTQPPSVSGAPGQRVTISCTGSSSNVGAGYDVHWYQQLPGTAPKLLIYGNNNRPSGVPARFSGSKSGTSASLAITGLQAEDEADYYCQSYDSRLGVVFGGGTKLTVL: 1.02
PDL1-16E12 (LS/4B8) (antibody, V domains shown) VH: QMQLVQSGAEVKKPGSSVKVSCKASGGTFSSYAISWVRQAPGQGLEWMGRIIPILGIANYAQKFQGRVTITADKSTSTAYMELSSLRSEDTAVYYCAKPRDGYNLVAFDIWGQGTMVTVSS VL: QLVLTQPPSVSGAPGQSVTISCTGSNSDIGAGHDVHWYQQLPGAAPKLLIHGDRDRPSGVPDRFSGSKSGTSASLAITGLQPEDEADYYCQSYNNSLRGSVFGTGTKVTVL: 188
PDL1-16E12 (LS/4A6) (antibody, V domains shown) VH: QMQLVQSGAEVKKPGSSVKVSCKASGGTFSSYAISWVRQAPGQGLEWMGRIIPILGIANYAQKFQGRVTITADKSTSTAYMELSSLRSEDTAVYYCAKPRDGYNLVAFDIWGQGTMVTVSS VL: QLVLTQPTSVSGAPGQRVIISCTGSSSNIGAGYDVHWYQQLPGTAPKLLIYGNTNRPSGVPDRFSGSKSGTAASLAITGLQAEDEADYYCQSFDRSRSGSNVFGTGTKVTVL: 0.48
PDL1-16E12 (LS/4E12) (antibody, V domains shown) VH: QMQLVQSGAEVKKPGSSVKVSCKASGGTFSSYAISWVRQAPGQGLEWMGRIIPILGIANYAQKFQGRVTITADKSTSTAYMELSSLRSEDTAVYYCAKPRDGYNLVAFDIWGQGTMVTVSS VL: QLVLTQPPSVSAAPGQKVTFSCTGSSSNIGAGYDVHWYQHLPGAAPRLLIYANTNRPLGVPDRFSGSKSGTSASLAITGLQAEDEADYYCQSYDNRLSGSLFGGGTKLTVL: 0.49

From here, focus on the item given below.
Q: Give the reported value of Average *EC50 [nM], PD-1/PD-L1 blockade bioassay for this record: PDL1-11A7 (antibody, V domains shown, Only FR/CDR pieces are tied to the clone) VH: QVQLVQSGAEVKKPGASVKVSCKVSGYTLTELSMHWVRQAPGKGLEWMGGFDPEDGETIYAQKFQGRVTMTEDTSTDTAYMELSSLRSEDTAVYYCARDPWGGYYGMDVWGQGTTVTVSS VL: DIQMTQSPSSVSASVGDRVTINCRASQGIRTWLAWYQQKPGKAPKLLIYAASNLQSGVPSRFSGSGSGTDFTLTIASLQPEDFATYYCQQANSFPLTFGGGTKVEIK
Result: 3.25
